# System Name: human dopamine D2L receptors (long isoform) (Homo sapiens, UniProt P14416)
# Construct: membranes
# Sequence (P14416 whole entry, canonical isoform): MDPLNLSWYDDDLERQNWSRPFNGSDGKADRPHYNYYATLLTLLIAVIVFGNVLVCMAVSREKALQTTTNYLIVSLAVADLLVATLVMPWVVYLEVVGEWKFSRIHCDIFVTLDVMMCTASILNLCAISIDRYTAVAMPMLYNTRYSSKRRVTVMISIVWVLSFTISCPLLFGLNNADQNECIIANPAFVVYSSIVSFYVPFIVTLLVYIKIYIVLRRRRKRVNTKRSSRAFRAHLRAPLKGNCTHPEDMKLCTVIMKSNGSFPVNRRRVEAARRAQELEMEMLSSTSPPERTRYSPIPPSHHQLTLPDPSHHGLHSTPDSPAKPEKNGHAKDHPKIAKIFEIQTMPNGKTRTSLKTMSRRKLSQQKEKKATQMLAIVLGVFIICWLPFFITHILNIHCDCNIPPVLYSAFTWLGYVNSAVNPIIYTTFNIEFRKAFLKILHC
# Protocol Description: Dopamine D2L receptor binding, [125I] iodospiperone displacement
# Setup Conditions: membranes of HEK-293 cells stably expressing human D2L receptor; 0.01 nM [125I] iodospiperone; 25° C., 60 minutes; read-out: Ki(D2)*
Counter-ions that a name gives are not always drawn.
Observation Type: Ki (nM)

# count of solved cases: 3
CCCN[C@H]1CCc2cc(NS(=O)(=O)c3ccc(OC(F)F)cc3)ccc2C1 [Example 74, hydrochloride]: 250
C=CCN1CCC[C@H]2c3cc(NS(=O)(=O)c4ccc(C(C)C)cc4)ccc3CC[C@@H]21: 339
CCCN[C@H]1CCc2cc(NS(=O)(=O)c3ccc(N4CCOCC4)cc3)ccc2C1: 1310

I = CCCN[C@H]1CCc2cc(NS(=O)(=O)c3ccc(C(C)C(F)(F)F)cc3)ccc2C1 (mixture of isomers)
II = CCCN[C@H]1CCc2cc(NS(=O)(=O)c3ccc([C@H](C)C(F)(F)F)cc3)ccc2C1
Which item exceeds the other in Ki, I or II ? Which one? Tell me its label.
II
